Below, each entry is listed alongside its reported PBM binding z-score.
# Tested on: PXR:RXRa (NR concentration 270 nM, RXRa partner concentration 90 nM)
# RUN DESCRIPTION: PBM binding z-score (relative to random genomic background probes); higher = stronger binding; sequences stand for … in GC…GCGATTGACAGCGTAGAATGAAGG

# count of solved cases: 5
biosequence=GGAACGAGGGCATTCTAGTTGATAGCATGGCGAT measurement=1.53
biosequence=TCGTGTAGATCAACAGGAGGTTAAGAAAGATCGA measurement=0.488
biosequence=CCAGACAGGTGAGAAGGTGACTCAGCCTCGATTA measurement=-0.175
biosequence=ATATGTAGGTTGTCGGGTCATTCAGTTTGCGCAT measurement=3.63
biosequence=AGAACGAGGGCACGCTGAGTTGATGGCAGAGTAG measurement=1.13

For `ACTATTAGTTGAGTTAGGGCAACCGATACGACGC` on PXR:RXRa (NR concentration 270 nM, RXRa partner concentration 90 nM), measured PBM binding z-score was 0.111

Log: PXR:RXRa (NR concentration 270 nM, RXRa partner concentration 90 nM), sequence `GCTGATAGGTCAGGTTGGTCAGCTAACGGGTACG` , PBM binding z-score = 1.25

Measured on PXR:RXRa (NR concentration 270 nM, RXRa partner concentration 90 nM), `TCATATAGGTAATAGAGGTGAAAGTCGGCATCTA` has a documented PBM binding z-score of 1.12

Query `CTCGCAAGGTCGTGCTCAGGTGAGTATACCAAAC` on PXR:RXRa (NR concentration 270 nM, RXRa partner concentration 90 nM); PBM binding z-score returned: 1.76

Known value: PXR:RXRa (NR concentration 270 nM, RXRa partner concentration 90 nM) PBM binding z-score of the sequence `TGAATGAGGTTAAAAATCAGGGAACGTGGCGTCG` equals 0.848

The sequence `CCGACTGGGGCAATGGTTACCATACTCAGTACGA` , tested on PXR:RXRa (NR concentration 270 nM, RXRa partner concentration 90 nM), showed PBM binding z-score of -0.648

Tested system PXR:RXRa (NR concentration 270 nM, RXRa partner concentration 90 nM); PBM binding z-score recorded for `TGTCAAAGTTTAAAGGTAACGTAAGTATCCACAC` was 1.7

----------
# System: LXRa homodimer (NR concentration 270 nM)
# RUN DESCRIPTION: PBM binding z-score (relative to random genomic background probes); higher = stronger binding; sequences stand for … in GC…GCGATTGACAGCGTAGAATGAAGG
Assign T to entries whose PBM binding z-score meets or exceeds 0.06; assign F to the rest.

Here are 3 sequences together with their reported answers.
biosequence=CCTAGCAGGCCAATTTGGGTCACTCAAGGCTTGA classification=F
biosequence=ATCTCTAGGTATCAAGTTCAGTGAAAGAGAGGAC classification=T
biosequence=CCAGACAGGTGAAAAGGTAACTCAGCCTCGATTA classification=F

Query string: Could you tell me if the measured PBM binding z-score of `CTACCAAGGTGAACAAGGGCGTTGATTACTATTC` reaches 0.06 or more?
Result string: F

Query string: Exam item: decide whether the reported PBM binding z-score for `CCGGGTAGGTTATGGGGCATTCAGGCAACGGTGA` is at least 0.06.
Result string: T

----------
# Tested on: LXRa:RXRa (NR concentration 270 nM, RXRa partner concentration 90 nM)
# RUN DESCRIPTION: PBM binding z-score (relative to random genomic background probes); higher = stronger binding; sequences stand for … in GC…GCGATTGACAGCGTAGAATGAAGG
Each entry gets No if its PBM binding z-score stays under 2, and Yes if its PBM binding z-score is 2 or above.

biosequence=CAGCCTAGGTCAGGGCCAGTCTAGGAGGAACGTT classification=No
biosequence=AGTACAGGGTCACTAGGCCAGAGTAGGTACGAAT classification=Yes
biosequence=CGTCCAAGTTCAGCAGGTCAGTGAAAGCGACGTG classification=Yes

Query string: Hello, I need to know if `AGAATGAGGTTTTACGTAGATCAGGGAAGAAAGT` has measured PBM binding z-score not below 2. Thanks!
Result string: No

Query string: Tell me whether PBM binding z-score is at least 2 here: `AGAATGAGGTTATACGTAGATCAGGGGAGAAAGT`
Result string: No

Query string: Check the entry `TCATATAGGTAATACAGGTAAAAGTCGGCATCTA` : does PBM binding z-score equal or exceed 2?
Result string: No

Query string: Form field: PBM binding z-score at least 2? Entry: `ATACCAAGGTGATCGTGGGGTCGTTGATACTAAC`
Result string: No

Query string: Entry `ATCTCTAGGTAAAGTTCAGAGAAAGATCGATAGA` : is its PBM binding z-score no less than 2?
Result string: No

Query string: Check if PBM binding z-score >= 2 (inclusive). Item: `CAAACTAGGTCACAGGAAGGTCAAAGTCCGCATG`
Result string: Yes

Query string: Dear colleague, could you confirm whether `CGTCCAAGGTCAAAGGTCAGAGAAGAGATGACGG` has PBM binding z-score at or above 2?
Result string: Yes

----------
# System: PPARa:RXRa (NR concentration 270 nM, RXRa partner concentration 90 nM)
# RUN DESCRIPTION: PBM binding z-score (relative to random genomic background probes); higher = stronger binding; sequences stand for … in GC…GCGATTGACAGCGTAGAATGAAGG
List of PBM binding z-score values.
Reply with the value as a number alone.

Answered cases to consult:
biosequence=CCTACTGGGCCATCAGATCATTGATATCAACGTT measurement=0.662
biosequence=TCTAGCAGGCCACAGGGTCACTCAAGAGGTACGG measurement=3.23
biosequence=TGAATGAGGTTATAAGATCAGGGAACGTTGCAAA measurement=2.61

# `CCAGACAGGTGACAGGTAACTCAGTCTGGTACGC` with PPARa:RXRa (NR concentration 270 nM, RXRa partner concentration 90 nM): PBM binding z-score is 0.79

Observed PBM binding z-score, PPARa:RXRa (NR concentration 270 nM, RXRa partner concentration 90 nM), `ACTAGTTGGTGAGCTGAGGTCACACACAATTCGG` : 3.35

The measured PBM binding z-score that `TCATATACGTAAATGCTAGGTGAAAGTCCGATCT` showed for PPARa:RXRa (NR concentration 270 nM, RXRa partner concentration 90 nM) is 0.771

Response field PBM binding z-score (PPARa:RXRa (NR concentration 270 nM, RXRa partner concentration 90 nM)) for item `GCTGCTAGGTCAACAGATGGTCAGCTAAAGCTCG` : 2.99

Measured PBM binding z-score for this entry `CCTCGGAGCACAGAAGGTCAGAGCTGTCCGCTTT` on PPARa:RXRa (NR concentration 270 nM, RXRa partner concentration 90 nM): 1.97

# PBM binding z-score measured on PPARa:RXRa (NR concentration 270 nM, RXRa partner concentration 90 nM) for item `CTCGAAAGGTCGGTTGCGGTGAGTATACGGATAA` = 2.17

Item `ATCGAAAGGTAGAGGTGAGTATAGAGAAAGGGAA` ; assay system PPARa:RXRa (NR concentration 270 nM, RXRa partner concentration 90 nM); PBM binding z-score reported as 0.942

Let me check: `CTCAAAAGGTCGTGCTCAGGTGAGTATACCAAAC` , system PPARa:RXRa (NR concentration 270 nM, RXRa partner concentration 90 nM), measured PBM binding z-score is 4.98

Entry `CTAGAAAGGTCGTGCTCAGGTGAGTATACCAAAC` ; assay system PPARa:RXRa (NR concentration 270 nM, RXRa partner concentration 90 nM); PBM binding z-score recorded at 4.78

Record `CTCGAAAGGTCGTGCTCAGGTGAGTATTCCAAAC` / PPARa:RXRa (NR concentration 270 nM, RXRa partner concentration 90 nM), PBM binding z-score recorded as 4.52

----------
# Tested on: RARg:RXRa (NR concentration 270 nM, RXRa partner concentration 90 nM)
# RUN DESCRIPTION: PBM binding z-score (relative to random genomic background probes); higher = stronger binding; sequences stand for … in GC…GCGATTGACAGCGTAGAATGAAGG
Item-by-item account of PBM binding z-score
Give the value as a plain number.

biosequence=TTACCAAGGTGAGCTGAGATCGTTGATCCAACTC measurement=-0.0165

For reference, reported PBM binding z-score for `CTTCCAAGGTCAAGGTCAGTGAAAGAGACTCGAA` stands at 6.79

Summary for this sequence, `GCTGGGAGGACAAGGTCAGAGCTTTGTCCGTAGA` : PBM binding z-score is 3.33

For reference, reported PBM binding z-score for `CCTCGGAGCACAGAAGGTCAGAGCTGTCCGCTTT` stands at 2.63

PBM binding z-score recorded for this sequence, `CGTCCAAGGTCAATGCTAGGTCGGTGAAAGCATT` , is 6.11

// field: PBM binding z-score; key: `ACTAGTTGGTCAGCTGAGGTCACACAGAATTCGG` ; value = 4.18

Sample `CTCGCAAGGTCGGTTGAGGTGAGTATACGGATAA` ; PBM binding z-score observed: 1.27

Item: `ACAGTCAGGTGATGAAGGTAACTCAGGCTATCAT` | PBM binding z-score: 0.23

PBM binding z-score measured on `CCGACTGGGCCAGAAAGGTTACCATACCATCCGG` = 1.28

The reported PBM binding z-score of the sequence `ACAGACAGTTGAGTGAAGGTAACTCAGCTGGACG` was 0.0376

Noted for `CCTACTGGGCTAAAGGTCATTGATTCCAATGCTC` : its PBM binding z-score reads 4.96

PBM binding z-score for `GATACAGGGTCAAGGCCACAGTACGCGTATTGAT` is 5.44

Entry `GCGACTGGGGCATCAGCAAGTTACCATAACTTAA` , PBM binding z-score reported as 0.142

Reported PBM binding z-score ( `AGAACGAGGGCAAGCTGAGTTGATAGCAGAGTAG` ) = 1.53

Data point: `GCATATAGGTAATACAAGGTGAAGGTCCGATTGT` ; PBM binding z-score = 0.61

PBM binding z-score measured on `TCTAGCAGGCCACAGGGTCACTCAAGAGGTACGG` = 3.5

Noted for `CCTACTAGGCCATTCAGAGGTCATTGATCATATG` : its PBM binding z-score reads 4.99

The reported PBM binding z-score of the sequence `TCGAGTAGGTTATCAATGGGGCATTCAGCTTTCT` was 0.919

Record `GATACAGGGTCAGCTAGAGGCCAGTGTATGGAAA` , field PBM binding z-score: 6.8

sequence `TAGCCTAGGTCAGATCGGGCAAGTATACGCTATA` , PBM binding z-score observed: 2.85
